B1: TPR 5TU (parent)
chain: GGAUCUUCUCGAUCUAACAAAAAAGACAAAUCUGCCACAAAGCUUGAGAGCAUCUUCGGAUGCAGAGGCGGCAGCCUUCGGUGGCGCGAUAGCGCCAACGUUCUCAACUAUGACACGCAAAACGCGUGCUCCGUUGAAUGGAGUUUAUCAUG

# Variants of: B1
# protocol_summary: polymerase ribozyme fitness, log enrichment relative to wild type (log ratio); higher = more active; in vitro selection for triplet polymerase activity
Variants at the floor of the assay were thinned out.
Binary classification by polymerase ribozyme fitness (log ratio), with -3 as an inclusive lower bound for t; all other cases are f.

variant_descriptor="A40G U56A" discrete_label=t
variant_descriptor="A40C U44G U53A C87G A107U A121U G124C U130A G143A" discrete_label=f
variant_descriptor="C105G U134C G140U" discrete_label=f
variant_descriptor="A41C C103A" discrete_label=t
variant_descriptor="U7G A23C A24U C54G" discrete_label=f
variant_descriptor="A47C A52G G68C A91C" discrete_label=f
variant_descriptor="A16C U31C A37C A40C C95G G100A C114U" discrete_label=f
variant_descriptor="G83U A121C A142U" discrete_label=t
variant_descriptor="A3C U13G G62A A66C U145A" discrete_label=f
variant_descriptor="A16C U61A A89G C118A C149G" discrete_label=f
variant_descriptor="U7A A20C C93G C116G U135G" discrete_label=f
variant_descriptor="A12U A21U C38A A106U C116A A119G" discrete_label=f
variant_descriptor="C43G G94A" discrete_label=f
variant_descriptor="U45G A52G U82C U101G C131U" discrete_label=f
variant_descriptor="A47G G84U U135A" discrete_label=t
variant_descriptor="C93A G124C U127C G133C U135A U148G" discrete_label=f
variant_descriptor="A16C A91C U101C" discrete_label=f
variant_descriptor="G48C C54A A73U C99A A150C" discrete_label=f
variant_descriptor="A40G C57A C72U C87A" discrete_label=f
variant_descriptor="A47G G84U A106G" discrete_label=t
variant_descriptor="C14U C43U C72A G84A C93G C95G A142G U144A" discrete_label=f
